tested on: NEK6; details: concentration: 1 μM, replicates: in singlicate; n = 1;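 further: KINOMEscan kinase panel screen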
Here, each record is paired with measured %Inh data.
Answer format: numeric, % implied, no suffix.

Take a look at these entries with their results.
CC(C)(C)c1ccc(C(=O)Nc2cn3cc(-n4ccnc4)ccc3n2)cc1	2
Cc1ccc(O)cc1Nc1ccnc2ccc(C(C)(C)C)cc12 [GW856805]	20
COc1cc(Nc2ccnc3cc(-c4ccncc4)ccc23)cc(OC)c1OC.Cl [GW494610]	1
CCn1cnc2c(NCc3ccccc3)ncnc21 [SKF-96418]	0
Cc1ccc(NC(=O)c2ccnc(N3CCCCC3)c2)cc1-c1ccc(C(=O)NCC2CC2)cc1 [GW775610]	0
Nc1cccc(-c2ccc3c(N)n[nH]c3c2)c1 [GSK2193613]	0

## Task Entry Cn1cc(-c2ccc3c(c2)CCN3C(=O)Cc2cc(F)cc(F)c2F)c2c(N)ncnc21 [GSK2634140] has what %Inh?
## Result 18

## Task Entry Fc1cc(Cl)ccc1Nc1ccnc2cc(-c3ccc(CN4CCSCC4)o3)ccc12 [GW560106] has what %Inh?
## Result 0

## Task Entry CS(=O)(=O)c1cccc(CNc2nc(Nc3ccc4c(c3)CCC(=O)N4)ncc2C(F)(F)F)c1 has what %Inh?
## Result 6

Provenance of the data: paper PMC5540273
